The measurements presented in this section are drawn from PubChem BioAssay (NCI).

# Test system: OVCAR-5 ovarian
# Protocol Details: NCI tumour cell line growth inhibition, 48 h
Where a SMILES comes first, the peptide text is derived from it.
Reported Endpoint: TGI

Please review the entries below; each comes with its answer.
O=[N+]([O-])C(=C1Nc2ccccc2N1)/C(Cl)=C(/Cl)N1CCOCC1
> 100 µM
CCOC(=O)c1c(-c2ccc(Br)cc2)ccn1C
> 10 µM
CC(C)CC(NC(=O)C(Cc1ccccc1)NC(=O)C(Cc1c[nH]c2ccccc12)NC(=O)CNC(=O)C(N)Cc1ccc(O)cc1)C(=O)O (centres undefined) (H-YGWFL-OH; configuration not given here)
> 100 µM
C/C=C/[C@H]1O[C@@H]2C(=C[C@H]1O)C(=O)O[C@H]2C
45.8 µM
NC(=O)C(=O)C(c1ccccc1)S(=O)(=O)Cc1ccccc1 (centres undefined)
> 100 µM
CN(C)CC(C(=O)Cc1ccccc1)c1ccccc1 (centres undefined)
22.4 µM

Could you tell me TGI for each of these compounds? They are listed below.
1. COc1ccc(/C=C/C(=O)CC(=O)/C=C/c2ccc(OC)cc2)cc1
2. O=C(NC(Nc1ccc(F)cc1)(C(F)(F)F)C(F)(F)F)C(C(F)(F)F)C(F)(F)F
3. Cc1c(N/C=C(\C#N)C(=O)c2ccc(Cl)cc2)c(=O)n(-c2ccccc2)n1C

1: > 100 µM; 2: > 100 µM; 3: > 100 µM
